# targetSystem: UGT1A7 (Homo sapiens)
# Construct: purchased BD Gentest Corp. (Woburn, MA, USA); host or cells: baculovirus-infected insect cells
# Sequence (Q9HAW7 26-530): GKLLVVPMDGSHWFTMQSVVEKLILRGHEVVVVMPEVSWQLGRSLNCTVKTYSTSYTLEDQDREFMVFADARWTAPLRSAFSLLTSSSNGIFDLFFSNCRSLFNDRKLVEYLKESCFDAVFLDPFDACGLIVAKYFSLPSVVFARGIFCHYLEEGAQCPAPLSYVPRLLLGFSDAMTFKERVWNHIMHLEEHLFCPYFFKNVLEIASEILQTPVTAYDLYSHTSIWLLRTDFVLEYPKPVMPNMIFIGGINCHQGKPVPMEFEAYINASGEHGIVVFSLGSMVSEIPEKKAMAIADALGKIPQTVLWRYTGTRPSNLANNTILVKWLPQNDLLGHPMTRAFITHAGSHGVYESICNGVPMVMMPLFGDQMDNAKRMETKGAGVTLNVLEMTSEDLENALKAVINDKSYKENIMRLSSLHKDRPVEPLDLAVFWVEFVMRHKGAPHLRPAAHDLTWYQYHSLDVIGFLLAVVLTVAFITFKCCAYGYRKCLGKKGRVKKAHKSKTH
# protocolDescription: Inhibition of recombinant UGT-catalyzed 4-MU glucuronidation
# Type: biochemical
# experimentalParameters: 4-MU glucuronidation; Probit analysis; read-out: IC50 towards UGT1A7
observable: IC50 (µM)
Numbers only, in µM.

Prompt: Read off the recorded IC50 for O=c1c2cc(O)c(O)cc2oc2cc(O)cc(O)c12 [NTR, 1,3,6,7-tetrahydroxyxanthone]
Completion: 4.4

----------
# targetSystem: UGT1A9 (Homo sapiens, UniProt O60656)
# Sequence (O60656 26-530): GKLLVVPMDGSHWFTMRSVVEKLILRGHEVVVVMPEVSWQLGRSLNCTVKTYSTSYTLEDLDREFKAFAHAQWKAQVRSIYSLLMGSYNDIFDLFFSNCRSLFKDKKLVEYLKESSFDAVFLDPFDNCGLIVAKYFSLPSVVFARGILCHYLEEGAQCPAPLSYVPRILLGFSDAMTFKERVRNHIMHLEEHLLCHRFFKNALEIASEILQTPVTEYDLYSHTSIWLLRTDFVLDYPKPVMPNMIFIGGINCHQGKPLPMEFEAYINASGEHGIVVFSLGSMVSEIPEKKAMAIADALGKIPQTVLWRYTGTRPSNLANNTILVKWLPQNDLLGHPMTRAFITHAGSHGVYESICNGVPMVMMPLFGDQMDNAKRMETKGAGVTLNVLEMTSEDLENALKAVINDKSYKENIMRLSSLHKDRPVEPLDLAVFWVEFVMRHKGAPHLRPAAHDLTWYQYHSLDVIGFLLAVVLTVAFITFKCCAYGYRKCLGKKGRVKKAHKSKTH
# protocolDescription: Inhibition of recombinant UGT-catalyzed 4-MU glucuronidation
# experimentalParameters: 4-MU glucuronidation; Probit analysis; read-out: IC50 towards UGT1A9
observable: IC50 (µM)
One number for each entry, in µM.

Prompt: Kindly indicate its recorded IC50. Item: O=c1c2cc(O)c(O)cc2oc2cc(O)cc(O)c12 [NTR, 1,3,6,7-tetrahydroxyxanthone]
Completion: 12.3
